- Subject of test: RsmA (Pseudomonas aeruginosa M18, UniProt O69078 1-61)
- Sequence (O69078 whole entry): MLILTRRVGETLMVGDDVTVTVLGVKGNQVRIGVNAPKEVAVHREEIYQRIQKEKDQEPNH
- Assay notes: SPR; biotin-RNA on SA chip; 200 mM NaCl, 20 mM Tris-HCl pH 8.0, 1 mM EDTA, 1 mM DTT; 25 C; EMSA: 200 mM KCl, 100 mM HEPES pH 7.3, 10 mM MgCl2, 2 ug tRNA, 5% glycerol, 10 mM DTT, room temp 30 min, 1 nM RNA; SPR: 200 mM NaCl, 20 mM Tris-HCl pH 8.0, 1 mM EDTA, 1 mM DTT, 25 C
- Cond: protein: recombinant; tags: C-terminal His tag; chain copies: 2; label: 3' biotin
Readout label: pKd
Reminder that pKd means the negative base-10 logarithm of the concentration expressed in mol/L.

Can you share its pKd? I mean this binder: UCUUCUUUCCGGUAUGGAUGCCAGUCGAUUC (ssRNA) [phz2-S3]
7.26
